The values you see were collected from the supplement of paper PMC7125110.

B1: glmS ribozyme (parent)
chain: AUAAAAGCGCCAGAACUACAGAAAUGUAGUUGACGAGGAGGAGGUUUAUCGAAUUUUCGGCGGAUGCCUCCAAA

Variants of: B1
Assay: self-cleavage kobs at 10000 uM GlcN6P; higher = faster cleavage; RNA array
Conditions: with glucosamine-6-phosphate
Variants at the floor of the assay were thinned out.
Property Measured: self-cleavage kobs at 10000 uM GlcN6P (s⁻¹)
Could you give me the number in s⁻¹? Just the number is fine.

Query: Would you kindly share the measured self-cleavage kobs at 10000 uM GlcN6P for `AUAAAAGUGCCAGAACUACAGAAAUGUAGUUGACGAGGAGGAGGUUUAUGGAAUUUUCGGCGGAUGCCUCCAAA` ?
Result: 0.000178

Query: Record: `AUAAAAGCCCCAGAACUACAGAAAUGUAGUUGACGAGGAGGAGGUUUAUCGAAUUUUCGGCGGAAGCGUCCAAA`
Result: 6.3e-05

Query: Record: `AUAAAAGCGCCAGGACUACAGAAAUGUAGUUGAUGAGGAGGAGGUUUAUCGAAUUUUCGGCGGAUGCGUCCAAA`
Result: 5.07e-05

Query: Record: `AUAAAAGCGCCAGAACUACAGAAAUGUAGGUGACGAGGAGGAGGUAUAUCGAAUUUUCGGCGGAUCCCUCCAAA`
Result: 0.000218

Query: Record: `AUAAAAGCGCCAGAACUACAGAAAUGUAGUUGACGAGGAGGAGGAUUAUCGAAUUUUCGGCGGAUGCCACCAAA`
Result: 0.000167

Query: Record: `AUAAAAGCGCCAGGACUACAGAAAUGUAGUUCACGAGGAGGAGGUUUAUCGAAUUUUCGGCGGAUGCCUUCAAA`
Result: 0.000239

Query: Record: `AUAAAAGCGCCCGAUCUACAGAAAUGUAGUUGACGAGGAGGAGGUUUAUCGGAUUUUCGGCGGAUGCCUCCAAA`
Result: 0.000174

Query: Record: `AUAAACGCGCCAGAACUACAGAAAUGUAGUUGACGAGGAGGAGGAUUAUCGAAUUUUCGGCGGAUGCCUCCAAA`
Result: 0.000168

Query: Record: `AUAAAAGCGCCAGAACUACAGAAAUGUAGUUGACGAGGAUGAGGUUUAUCGAAUUUUCGGCGGAUGCCUCUAAA`
Result: 0.00794

Query: Record: `AUAAAAGCGCCAGAGUUACAGAAAUGUACUUGACGAGGAGGAGGUUUAUCGAAUUUUCGGCGGAUGCCUCCAAA`
Result: 0.00377

Query: Record: `AUAAAAGCGCCAGAACUACAGAAAUGUAGUUGACGAGGAGGGGGUUUAUCGAAUUUUCUGCGGAUGCCUCCAAA`
Result: 4.33e-05

Query: Record: `AUAAAAGCGCCAGACCUACAGAAAUGUAGUUGACGAGGAGGAGGUUUAUCGAAUUUUCGGCGGAUGACUCCAAA`
Result: 0.000858

Query: Record: `AUAAAAGCGCCAGAACUACAGAAAUGUAGUUGACGAGGAGGAGGUUUAUCGAAUAUUCGGCGGAUGCGUCCAAA`
Result: 8.04e-05

Query: Record: `AUAAAAGCGCCAGAACUACAGAAAUGUAGUUGACGAGGAGGAGGUUUAUGGAAUUUUGGGCGGAUUCAUCCAAA`
Result: 0.00013

Query: Record: `AUAAAAGCGCCAGAAAUACAGAAAUGUAGUUUACGAGGAGGAGGUUUAUCGAAUGUUCGGCGGAUGCCUCCAAA`
Result: 0.000315

Query: Record: `AUAAAAGCGCCAGGUCUACAGAAAUGUAGUUAACGAGGAGGAGGUUUAUCGAAUUUUCGGCGGAUGCCUCCAAA`
Result: 0.00264

Query: Record: `AUAAAAGCGCCAGAACUACAGAAAUGUAGGUGACGAGGAGGAGGUUUAUCGAAUUUUUGGCGGAUGCCUCCAAA`
Result: 4.54e-05

Query: Record: `AUAAAAGCGCCAGAACUACAGAAAUGUAAUUUACGAGGAGGAGGUUUAUCGGAUUUUCGGCGGAUGCCUCCAAA`
Result: 3.76e-05

Query: Record: `AUAAAAGCGCCAGAACUACAGAAAUGUAGUUGACGAGGAGGAGGUGUAUCGAACUUUCGGCGGAUGCCUCCAAA`
Result: 0.00687

Query: Record: `AUAAAAGCGCUAGAACUACAGAAAUGUAGUUGACGAGGAGGAGGUUUAUCGAAUGUUCGGCGGAUGCCUGCAAA`
Result: 8.94e-05

Query: Record: `AUAAAAGCGCCAGAACUACAGAAAUGUAGUUGACGAGGAGGAGGUUGAUAGAAUUUUCGGCGGGUGCCGCCAAA`
Result: 3.49e-05
